Taken from BindingDB's records for doi:10.1016/0960-894X(95)00199-4.

# EXPERIMENT_NOTES: Compound was evaluated for the inhibition of platelet aggregation, assessed turbidimetrically in citreated human platelet rich plasma (PRP)
pIC50: −log10 of the molar value.
METRIC_NAME: pIC50

O=C(O)CCC/C=C\C[C@H]1[C@H](F)CC[C@@H]1NS(=O)(=O)c1ccc2ccccc2c1: 6.70
O=C(O)CC/C=C\CC1=CCC[C@@H]1NS(=O)(=O)c1ccc(F)cc1: 5.89
O=C(O)CC/C=C\CC1=CCC[C@@H]1NS(=O)(=O)c1ccccc1: 5.66
O=C(O)CC/C=C\CC1=CCC[C@@H]1NS(=O)(=O)c1ccc(F)cc1F: 4.70
O=C(O)COCCCCC1=CCC[C@@H]1NS(=O)(=O)c1ccc(Cl)c(Cl)c1: 5.72
O=C(O)COCCCC[C@@H]1[C@@H](CNS(=O)(=O)c2ccc(F)cc2)CC[C@H]1F: 6.19

A. O=C(O)CCC/C=C\C[C@@H]1[C@@H](CNS(=O)(=O)c2ccc(F)cc2)CC[C@H]1F
B. O=C(O)CC/C=C\C[C@H]1[C@H](F)CC[C@@H]1NS(=O)(=O)c1ccc(F)cc1
Exercise: Returns the identifier with the smallest measured pIC50 among A and B . Which one? Tell me its label.
Key: A

P. O=C(O)CCC/C=C\CC1=CCC[C@@H]1NS(=O)(=O)c1cccc2cccnc12
Q. O=C(O)CCC/C=C\C[C@H]1[C@H](F)CC[C@@H]1NS(=O)(=O)c1ccc(Cl)c(Cl)c1
Exercise: Between P and Q , whose measured pIC50 reads higher? Answer with the label corresponding to your selection.
Key: Q
(Q: 6.20, P: 5.70)

* * *

# EXPERIMENT_NOTES: Compound was evaluated for the inhibition of platelet aggregation, assessed turbidimetrically in citreated human platelet rich plasma (PRP)
pIC50: −log10 of the molar value.
METRIC_NAME: pIC50

Below, each entry is followed by its recorded pIC50 result.
O=C(O)COCCCC[C@H]1[C@H](F)CC[C@@H]1NS(=O)(=O)c1ccccc1: 5.77
O=C(O)CCC/C=C\C[C@H]1[C@H](F)CC[C@@H]1NS(=O)(=O)c1ccccc1[N+](=O)[O-]: 5.74
Cc1ccc(S(=O)(=O)N[C@H]2CCC=C2C/C=C\CCC(=O)O)cc1: 5.74
O=C(O)COCCCC[C@H]1[C@H](F)CC[C@@H]1NS(=O)(=O)c1ccc(F)cc1: 5.74
O=C(O)CC/C=C/C[C@H]1[C@H](F)CC[C@@H]1NS(=O)(=O)c1ccc(F)cc1F: 5.80
O=C(O)CCC/C=C\CC1=CCC[C@@H]1NS(=O)(=O)c1ccc2ccccc2c1: 5.72
O=C(O)CC/C=C\CC1=CCC[C@@H]1CNS(=O)(=O)c1ccc(F)cc1: 6.22
Cc1ccc(S(=O)(=O)N[C@H]2CC[C@@H](F)[C@@H]2C/C=C\CCCC(=O)O)cc1: 6.59
O=C(O)CC/C=C\C[C@H]1[C@H](F)CC[C@@H]1NS(=O)(=O)c1ccccc1[N+](=O)[O-]: 6.25
Cc1ccc(S(=O)(=O)N[C@H]2CC[C@@H](F)[C@@H]2C/C=C\CCC(=O)O)cc1: 5.72

1. O=C(O)CCCCCC[C@H]1[C@H](F)CC[C@@H]1NS(=O)(=O)c1ccc(F)cc1
2. O=C(O)CCCCCC[C@@H]1[C@@H](CNS(=O)(=O)c2ccc(F)cc2)CC[C@H]1F
Exercise: pIC50 comparison. Which is larger, 1 or 2 ? Mark your answer with the label of the selected entry.
Key: 1

* * *

# EXPERIMENT_NOTES: Compound was evaluated for the inhibition of platelet aggregation, assessed turbidimetrically in citreated human platelet rich plasma (PRP)
pIC50: −log10 of the molar value.
METRIC_NAME: pIC50

O=C(O)CCC/C=C\CC1=CCC[C@@H]1NS(=O)(=O)c1ccccc1: 5.64

P. O=C(O)COCCCCC1=CCC[C@@H]1NS(=O)(=O)c1ccccc1[N+](=O)[O-]
Q. O=C(O)CCCCC[C@@H]1[C@@H](CNS(=O)(=O)c2ccc(F)cc2)CC[C@H]1F
Exercise: Could you tell me which of P and Q has the lower pIC50 reading? Answer format: the label of the selected item.
Key: Q

* * *

# EXPERIMENT_NOTES: Compound was evaluated for the inhibition of platelet aggregation, assessed turbidimetrically in citreated human platelet rich plasma (PRP)
METRIC_NAME: IC50 (nM)

Cc1ccc(S(=O)(=O)NC[C@H]2CC[C@@H](F)[C@@H]2C/C=C\CCC(=O)O)cc1: 1900
O=C(O)COCCCCC1=CCC[C@@H]1NS(=O)(=O)c1ccc(F)cc1F: 1800

P. Cc1ccc(S(=O)(=O)N[C@H]2CCC=C2CCCCOCC(=O)O)cc1
Q. O=C(O)CCC/C=C\CC1=CCC[C@@H]1NS(=O)(=O)c1ccccc1[N+](=O)[O-]
R. O=C(O)CC/C=C\C[C@H]1[C@H](F)CC[C@@H]1NS(=O)(=O)c1ccc(Cl)cc1
Exercise: Ascending by IC50, please. Provide your answer as the labels ordered per the instruction.
Key: R, Q, P
(R: 210 nM, Q: 680 nM, P: 1900 nM)

P. O=C(O)CCCCCCC1=CCC[C@@H]1NS(=O)(=O)c1ccc(F)cc1
Q. O=C(O)CC/C=C\CC1=CCC[C@@H]1NS(=O)(=O)c1ccc(Cl)cc1
Exercise: Given P and Q , report the one with the higher recorded IC50. Label of pick, please.
Key: Q
